B1: TPR t1 (parent)
chain: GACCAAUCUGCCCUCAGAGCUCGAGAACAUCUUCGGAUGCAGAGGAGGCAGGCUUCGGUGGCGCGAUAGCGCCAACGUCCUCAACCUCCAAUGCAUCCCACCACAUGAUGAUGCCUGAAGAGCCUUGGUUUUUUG

Variants of: B1
Assay: polymerase ribozyme fitness, log enrichment relative to wild type (log ratio); higher = more active; in vitro selection for triplet polymerase activity
# polymerase ribozyme fitness (log ratio) >= -2 gives Condition met, anything below gives Condition not met

Look over these answered cases.
>  <alteration>
G52A C86G

>  <label>
Condition met

$$$$
>  <alteration>
C15G A27G

>  <label>
Condition not met

$$$$
>  <alteration>
C11U U21A A27G C70G A105G

>  <label>
Condition not met

$$$$
>  <alteration>
C4G C20G G61U G117A

>  <label>
Condition not met

$$$$
>  <alteration>
C40U C53U

>  <label>
Condition met

$$$$
>  <alteration>
C15U U38G G45A G60C A74U

>  <label>
Condition not met

$$$$
>  <alteration>
G63A C82G G117U C123G

>  <label>
Condition not met

$$$$
>  <alteration>
C49G C101A C124U

>  <label>
Condition met

$$$$
>  <alteration>
G45C C62A

>  <label>
Condition not met

$$$$
>  <alteration>
C15U G48U A74C G77C

>  <label>
Condition not met

$$$$

Next item in the queue.
Tell me whether polymerase ribozyme fitness (log ratio) is at least -2 here: A27U U54C U109A G117A A118U U129G
Condition not met
